Let's go through some recorded IC50 values for Xanthine oxidase (Homo sapiens) together.

# example entries with known answers
COMPOUND	ASSAY_VALUE
O=c1c(O)c(-c2ccc(O[C@@H]3O[C@H](CO)[C@@H](O)[C@H](O)[C@H]3O)cc2)oc2cc(O)cc(O)c12 [Compound 2, kaempferol-4′-O-β-D-glucopyranoside]	73.7 µM
O=c1c(O)c(-c2ccc(O)cc2)oc2cc(O[C@@H]3O[C@H](CO)[C@@H](O)[C@H](O)[C@H]3O)cc(O)c12 [Compound 3, kaempferol-7-O-β-D-glucopyranoside]	6.39 µM

INPUT: Recorded IC50 for N[C@@H](Cn1ccc(=O)c(O)c1)C(=O)O [L-mimosine, reference compound] with Xanthine oxidase (Homo sapiens), please?
OUTPUT: 3.63 µM
